- Test system: OVCAR-3 ovarian
- Assay Explanation: NCI-60 one-dose screen, 48 h
- Condition Details: 10 µM unless noted
About 83,000 compounds went through this panel and 20% of them were active in at least one assay; those are over-represented in the sample as a whole. Active and inactive are the calls of the source. The calls were made as follows: active = growth percent below 10; inactive = the rest.
Give one outcome, nothing more. List: T (active), F (inactive)

Before answering, review these 5 worked examples.
- Compound: "CC(C)(C)n1cc(-c2ccnc(NCCCNS(=O)(=O)c3ccc(C(F)(F)F)cc3)c2)c(-c2cccc(O)c2)n1"
  Tested On: "OVCAR-3 ovarian"
  Class Name: "F"
- Compound: "COc1cc(-c2nn(-c3cccc(NC(=O)c4cccc(C(F)(F)F)c4)c3)cc2-c2ccncc2)ccc1Cl"
  Tested On: "OVCAR-3 ovarian"
  Class Name: "T"
- Compound: "COc1cccc(/C=C2\\Oc3cc(OCCCN4CCCC4)ccc3C2=O)c1OC"
  Tested On: "OVCAR-3 ovarian"
  Class Name: "F"
- Compound: "CN(C)c1oc(C2OC2c2ccccc2)nc1C#N (centres undefined)"
  Tested On: "OVCAR-3 ovarian"
  Class Name: "F"
- Compound: "CCN1CCN(CC(=O)N2c3cccc4cccc(c34)N(C(=O)CN3CCN(CC)CC3)C2c2cn(-c3ccccc3)nc2-c2cccc([N+](=O)[O-])c2)CC1"
  Tested On: "OVCAR-3 ovarian"
  Class Name: "T"

What did the test return for Oc1ccccc1/C=N/NC(=S)NC1CC2C=CC1C2 (centres undefined) ?
F

Try this compound too: Cc1ccc(S(=O)(=O)NCCNc2nccc(-c3c(-c4cccc(N)c4)nc4sccn34)n2)cc1
F

Try this compound too: CCCC(=O)Oc1ccc(/C(=C(\C)c2ccccc2)c2ccc(OCCN(CC)CC)cc2)cc1
F

Try this compound too: Cc1c(C(=N)C(C#N)C#N)c(=N)oc2c1ccc1ccccc12
F

###

- Tested on: SK-MEL-2 melanoma
- Assay Explanation: NCI-60 one-dose screen, 48 h (100 = growth as untreated, 0 = no growth, -100 = all killed)
- Condition Details: 10 µM unless noted
Compounds without any hit were thinned out: in the full panel of roughly 83,000, 20% have a hit.
Experimental Endpoint: growth (%)
Give the number; % is assumed, so skip it.

// known answers, use as guide
- Compound: "N=c1ccc2nc3ccc(N)cc3sc-2c1"
  Assay Result: 50.9
- Compound: "Cc1nn(-c2ccc(Cl)cc2)c2ncnc(N/N=C/c3cccc([N+](=O)[O-])c3)c12"
  Assay Result: 99
- Compound: "C=C(C)[C@@H]1CC[C@]2(C(=O)O)CC[C@]3(C)[C@H](CC[C@@H]4[C@@]5(C)C[C@@H](CC#Cc6ccc(C(F)(F)F)cc6)[C@H](O)C(C)(C)[C@@H]5CC[C@]43C)[C@@H]12"
  Assay Result: -27
- Compound: "Cn1c(=O)c2[nH]c(C3CC=CCC3)nc2n(C)c1=O (stereo not given)"
  Assay Result: 97.6
- Compound: "Clc1cc2c(nn1)Nc1ccccc1S2"
  Assay Result: -4.79

Quick check: growth of Cc1ccc(S(=O)(=O)NC(=O)n2cc(-c3ccncc3)c(-c3ccc(Cl)c(O)c3)n2)cc1 ?
90.9

Try this compound too: CN(CCCCN(C[C@H]1Cc2ncccc2CN1)[C@H]1CCCc2cccnc21)C1CCC(F)(F)CC1
94.6

###

- Test system: SF-539 CNS
- Assay Explanation: NCI-60 one-dose screen, 48 h (100 = growth as untreated, 0 = no growth, -100 = all killed)
- Condition Details: 10 µM unless noted
This is part of a sample that, as a whole, favours compounds with a hit. Of some 83,000 tested, about 20% had one in any assay. Active and inactive are the calls of the source. Rule for the calls: active = growth percent below 10; inactive = the rest.
Catalogue of growth readings, one per entry.

- Compound: "CC(C)(C)n1cc(-c2ccnc(NCCNS(=O)(=O)c3ccc(C(F)(F)F)cc3)c2)c(-c2cccc(O)c2)n1"
  Experimental Endpoint: "growth"
  Assay Result: "54% (inactive)"
- Compound: "COc1ccccc1CNCCCN1C(=O)c2ccc3c4c(ccc(c24)C1=O)C(=O)N(CCCNCCCCNCCCN)C3=O"
  Experimental Endpoint: "growth"
  Assay Result: "-55.9% (active)"
- Compound: "O=C(CSC1CCc2ccccc21)N/N=C/c1ccccc1O (stereo not given)"
  Experimental Endpoint: "growth"
  Assay Result: "54.7% (inactive)"
- Compound: "C=C1CCC2C(C)(CO)C(O)CCC2(C)C1C/C=C1/C(=O)OCC1Oc1ccccc1C (stereo not given)"
  Experimental Endpoint: "growth"
  Assay Result: "81.1% (inactive)"
- Compound: "O=C1/C(=C/c2ccc(Cl)cc2)CN(C(=O)CCN2CCC(=NO)CC2)C/C1=C\\c1ccc(Cl)cc1"
  Experimental Endpoint: "growth"
  Assay Result: "-84.5% (active)"

Quick check: growth of CC12CCCC(CC(=O)c3[nH]c4ccccc4c31)C2 (stereo not given) ?
-19.1% (active)

Try this compound too: Cc1ccc2ccccc2c1C[n+]1ccccc1
105% (inactive)

Try this compound too: COc1ccc(-c2c(N)n[nH]c2-c2cc3c(c(OC)c2OC)OCO3)cc1
93.1% (inactive)

Try this compound too: c1ccc(Nc2nc(Nc3ccccc3)nc(Nc3ccccc3)n2)cc1
90.7% (inactive)

Try this compound too: C=C1CCC2C(C)(CO)C(O)CCC2(C)C1C/C=C1/C(=O)OCC1O/C=C/c1ccccc1 (stereo not given)
96.9% (inactive)

###

Catalogue of growth readings, one per entry.
- Test system: ACHN renal
- Assay Explanation: NCI-60 one-dose screen, 48 h (100 = growth as untreated, 0 = no growth, -100 = all killed)
- Condition Details: 10 µM unless noted
The panel holds about 83,000 compounds, 20% with a hit somewhere; the sample as a whole holds those more often. The source made the active and inactive calls. How the source made its calls: active means growth percent below 10; inactive means the rest.

// known answers, use as guide
- Compound: "Nc1cc2c(cc1C(=O)c1cccc(F)c1)OCCO2"
  Tested On: "ACHN renal"
  Assay Result: "105% (inactive)"
- Compound: "CC(C)(C)n1cc(-c2ccnc(NCCCNS(=O)(=O)c3ccccc3)c2)c(-c2cccc(O)c2)n1"
  Tested On: "ACHN renal"
  Assay Result: "45.6% (inactive)"
- Compound: "CC(C)(C)n1cc(-c2ccnc(NCCCNS(=O)(=O)c3ccc(Br)cc3)c2)c(-c2cccc(O)c2)n1"
  Tested On: "ACHN renal"
  Assay Result: "33.1% (inactive)"
- Compound: "O=C1CS/C(=N\\Nc2cc(=O)[nH]c3ccccc23)N1c1ccccc1"
  Tested On: "ACHN renal"
  Assay Result: "93.6% (inactive)"
- Compound: "Cc1cc(C)n(-c2nnc3n2N=C(c2ccc(-c4ccccc4)cc2)CS3)n1"
  Tested On: "ACHN renal"
  Assay Result: "54.8% (inactive)"
- Compound: "COc1cc(-c2nn(-c3cccc(NC(=O)c4ccc(Cl)c(C(F)(F)F)c4)c3)cc2-c2ccncc2)ccc1Cl"
  Tested On: "ACHN renal"
  Assay Result: "39.1% (inactive)"
- Compound: "C/C(=C\\c1ccc(OCC(=O)O)c(Cl)c1Cl)[N+](=O)[O-]"
  Tested On: "ACHN renal"
  Assay Result: "110% (inactive)"
- Compound: "COc1ccc(C2C(C#N)=C(N)Oc3c2ccc2ccccc32)cc1 (stereo not given)"
  Tested On: "ACHN renal"
  Assay Result: "52.5% (inactive)"
- Compound: "O=C(C1=Cc2cc3ccccc3n2Cc2cnnn21)c1ccccc1"
  Tested On: "ACHN renal"
  Assay Result: "74.6% (inactive)"

Now for another entry.
Quick check: growth of Cc1cccc(/C=N/Nc2cc(C)c3cccc(C)c3n2)n1 ?
92.1% (inactive)

###

- Test system: SNB-75 CNS
- Assay Explanation: NCI-60 one-dose screen, 48 h
- Condition Details: 10 µM
Compounds without any hit were thinned out: in the full panel of roughly 83,000, 20% have a hit. Calls of active or inactive are those of the source. The calls were made as follows: active = growth percent below 10; inactive = the rest.
Give one outcome, nothing more. List: 1.0 for active, 0.0 for inactive

- Compound: "COc1cc(-c2ncn(/C=C\\C(=O)OC(C)C)n2)cc(C(F)(F)F)c1"
  Tested On: "SNB-75 CNS"
  Class Name: 1.0
- Compound: "C=C[C@@H]1C[C@H](O)Cc2c(C)cc(C)cc2N1"
  Tested On: "SNB-75 CNS"
  Class Name: 0.0
- Compound: "COc1cc2c(cc1OCCCCCn1c3ccccc3c3ccccc31)N=C[C@@H]1CCCN1C2=O"
  Tested On: "SNB-75 CNS"
  Class Name: 1.0

What did the test return for COc1cc2c(cc1OCCCN1CCN(CCCn3c4ccccc4c4ccccc43)CC1)N=C[C@@H]1CCCN1C2=O ?
1.0

Try this compound too: COc1cc(/C=C/C(=O)c2ccc(Nc3ncnc4cc(OC)c(OC)cc34)cc2)cc(OC)c1
0.0

Try this compound too: CC1=NC2=CC=CC3=NC(C(Cl)(Cl)Cl)=NC(=N1)N23
0.0

Try this compound too: N#C/C(=C1C=C/C(=N/O)C(Cl)=C/1)c1ccc(Cl)cc1
0.0

Try this compound too: CCCCC(CC)OC(=O)C(Br)CC (configuration not stated)
0.0
